- Tested System: FER^WT (Homo sapiens)
- Sequence (P16591 448-820): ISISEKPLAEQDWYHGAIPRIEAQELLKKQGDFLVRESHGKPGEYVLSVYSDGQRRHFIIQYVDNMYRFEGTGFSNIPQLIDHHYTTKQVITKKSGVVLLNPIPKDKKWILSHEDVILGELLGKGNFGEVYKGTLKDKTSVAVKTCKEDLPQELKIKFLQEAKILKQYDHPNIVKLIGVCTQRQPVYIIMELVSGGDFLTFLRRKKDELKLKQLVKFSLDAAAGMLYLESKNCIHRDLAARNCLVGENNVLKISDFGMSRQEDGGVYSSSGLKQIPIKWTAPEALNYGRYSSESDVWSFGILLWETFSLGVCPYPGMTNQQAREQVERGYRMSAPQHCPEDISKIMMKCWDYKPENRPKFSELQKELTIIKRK
- Assay Explanation: In vitro TR-FRET kinase assay
- Condition Description: log[inhibitor] (M) -7.52288
Property Measured: Residual activity (%) WT Mean
Give the value in % but do not write % after it.

| Smiles | Property Measured | U | Reported Result |
| --- | --- | --- | --- |
| C#CCOc1ccc(Nc2ncc(Cl)c(Nc3ccccc3NC(=O)C=C)n2)c(OC)c1 | Residual activity (%) WT Mean | % | 74.9371 |
| C=CC(=O)Nc1ccccc1Nc1nc(Nc2ccccc2OC)ncc1Cl | Residual activity (%) WT Mean | % | 87.6084 |
| COc1ccccc1Nc1ncc(Cl)c(Nc2ccccc2S(=O)(=O)C(C)C)n1 | Residual activity (%) WT Mean | % | 12.0728 |

Read the next record carefully.
Q: Look up Residual activity (%) WT Mean: "CCC(=O)Nc1ccccc1Nc1nc(Nc2ccccc2OC)ncc1Cl"
Ans: 93.3601

====

- Tested System: ALK (Homo sapiens)
- Sequence (Q9UM73 19-1620, species assumed): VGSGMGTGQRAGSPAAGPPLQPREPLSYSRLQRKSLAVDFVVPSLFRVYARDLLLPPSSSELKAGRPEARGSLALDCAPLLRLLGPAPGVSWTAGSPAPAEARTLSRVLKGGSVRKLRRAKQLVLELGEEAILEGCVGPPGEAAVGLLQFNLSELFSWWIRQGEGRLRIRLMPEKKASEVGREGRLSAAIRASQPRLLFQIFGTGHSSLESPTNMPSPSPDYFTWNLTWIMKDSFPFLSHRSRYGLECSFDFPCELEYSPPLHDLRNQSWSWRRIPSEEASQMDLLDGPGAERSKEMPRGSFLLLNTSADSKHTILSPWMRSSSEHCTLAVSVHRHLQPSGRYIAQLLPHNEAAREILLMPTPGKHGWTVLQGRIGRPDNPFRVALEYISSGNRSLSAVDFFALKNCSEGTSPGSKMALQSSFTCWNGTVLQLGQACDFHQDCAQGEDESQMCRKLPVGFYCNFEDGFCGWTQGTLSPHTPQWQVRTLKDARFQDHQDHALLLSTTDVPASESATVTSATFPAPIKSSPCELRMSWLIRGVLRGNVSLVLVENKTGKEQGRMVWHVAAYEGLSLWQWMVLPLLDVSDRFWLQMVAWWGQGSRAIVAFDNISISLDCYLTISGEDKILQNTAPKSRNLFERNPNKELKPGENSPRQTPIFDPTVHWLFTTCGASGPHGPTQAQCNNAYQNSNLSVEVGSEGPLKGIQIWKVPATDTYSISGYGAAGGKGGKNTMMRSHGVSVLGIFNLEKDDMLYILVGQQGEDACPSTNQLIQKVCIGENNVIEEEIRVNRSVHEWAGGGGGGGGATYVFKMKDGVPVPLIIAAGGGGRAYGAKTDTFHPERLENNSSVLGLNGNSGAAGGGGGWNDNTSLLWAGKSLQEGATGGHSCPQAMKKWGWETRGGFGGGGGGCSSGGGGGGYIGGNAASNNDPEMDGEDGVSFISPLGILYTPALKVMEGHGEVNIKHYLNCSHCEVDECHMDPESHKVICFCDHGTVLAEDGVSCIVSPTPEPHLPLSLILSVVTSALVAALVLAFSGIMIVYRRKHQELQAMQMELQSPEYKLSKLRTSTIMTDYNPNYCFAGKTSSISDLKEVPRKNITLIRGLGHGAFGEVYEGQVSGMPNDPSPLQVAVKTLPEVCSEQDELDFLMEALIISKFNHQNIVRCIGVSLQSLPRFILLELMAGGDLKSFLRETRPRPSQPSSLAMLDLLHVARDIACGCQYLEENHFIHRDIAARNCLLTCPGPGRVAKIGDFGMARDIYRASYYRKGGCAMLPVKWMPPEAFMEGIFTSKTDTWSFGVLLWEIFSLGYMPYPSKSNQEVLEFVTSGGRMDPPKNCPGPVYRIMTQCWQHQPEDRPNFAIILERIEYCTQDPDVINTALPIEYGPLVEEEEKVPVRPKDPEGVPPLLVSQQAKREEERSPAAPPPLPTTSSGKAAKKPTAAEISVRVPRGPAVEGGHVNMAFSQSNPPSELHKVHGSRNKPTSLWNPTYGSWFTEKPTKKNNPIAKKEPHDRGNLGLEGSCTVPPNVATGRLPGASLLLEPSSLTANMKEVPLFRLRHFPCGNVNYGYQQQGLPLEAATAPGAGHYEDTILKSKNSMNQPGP
Property Measured: pIC50
In plain terms, pIC50 is the concentration in mol/L turned into minus its base-10 logarithm.

Q: pIC50 lookup needed for "C#CCOc1ccc(Nc2ncc(Cl)c(Nc3ccccc3NC(=O)C=C)n2)c(OC)c1" , thanks.
Ans: 6.90

====

- Tested System: FER^WT (Homo sapiens)
- Assay Explanation: In vitro TR-FRET kinase assay
- Condition Description: log[inhibitor] (M) -8.52288
Property Measured: Residual activity (%) WT Mean
Provide only the numeric value, understood in %.

Q: Would you mind telling me what Residual activity (%) WT Mean value was observed for "CCC(=O)Nc1ccccc1Nc1nc(Nc2ccccc2OC)ncc1Cl" ?
Ans: 92.7732

Q: Can you check "C=CC(=O)Nc1ccccc1Nc1nc(Nc2ccccc2OC)ncc1Cl" next?
Ans: 98.6881

Q: Moving on to "COc1ccccc1Nc1ncc(Cl)c(Nc2ccccc2S(=O)(=O)C(C)C)n1"
Ans: 59.2785

Q: Entry to check: "C#CCOc1ccc(Nc2ncc(Cl)c(Nc3ccccc3NC(=O)C=C)n2)c(OC)c1"
Ans: 92.3988

====

- Tested System: GAK (Homo sapiens, UniProt O14976)
- Sequence (O14976 1-1311): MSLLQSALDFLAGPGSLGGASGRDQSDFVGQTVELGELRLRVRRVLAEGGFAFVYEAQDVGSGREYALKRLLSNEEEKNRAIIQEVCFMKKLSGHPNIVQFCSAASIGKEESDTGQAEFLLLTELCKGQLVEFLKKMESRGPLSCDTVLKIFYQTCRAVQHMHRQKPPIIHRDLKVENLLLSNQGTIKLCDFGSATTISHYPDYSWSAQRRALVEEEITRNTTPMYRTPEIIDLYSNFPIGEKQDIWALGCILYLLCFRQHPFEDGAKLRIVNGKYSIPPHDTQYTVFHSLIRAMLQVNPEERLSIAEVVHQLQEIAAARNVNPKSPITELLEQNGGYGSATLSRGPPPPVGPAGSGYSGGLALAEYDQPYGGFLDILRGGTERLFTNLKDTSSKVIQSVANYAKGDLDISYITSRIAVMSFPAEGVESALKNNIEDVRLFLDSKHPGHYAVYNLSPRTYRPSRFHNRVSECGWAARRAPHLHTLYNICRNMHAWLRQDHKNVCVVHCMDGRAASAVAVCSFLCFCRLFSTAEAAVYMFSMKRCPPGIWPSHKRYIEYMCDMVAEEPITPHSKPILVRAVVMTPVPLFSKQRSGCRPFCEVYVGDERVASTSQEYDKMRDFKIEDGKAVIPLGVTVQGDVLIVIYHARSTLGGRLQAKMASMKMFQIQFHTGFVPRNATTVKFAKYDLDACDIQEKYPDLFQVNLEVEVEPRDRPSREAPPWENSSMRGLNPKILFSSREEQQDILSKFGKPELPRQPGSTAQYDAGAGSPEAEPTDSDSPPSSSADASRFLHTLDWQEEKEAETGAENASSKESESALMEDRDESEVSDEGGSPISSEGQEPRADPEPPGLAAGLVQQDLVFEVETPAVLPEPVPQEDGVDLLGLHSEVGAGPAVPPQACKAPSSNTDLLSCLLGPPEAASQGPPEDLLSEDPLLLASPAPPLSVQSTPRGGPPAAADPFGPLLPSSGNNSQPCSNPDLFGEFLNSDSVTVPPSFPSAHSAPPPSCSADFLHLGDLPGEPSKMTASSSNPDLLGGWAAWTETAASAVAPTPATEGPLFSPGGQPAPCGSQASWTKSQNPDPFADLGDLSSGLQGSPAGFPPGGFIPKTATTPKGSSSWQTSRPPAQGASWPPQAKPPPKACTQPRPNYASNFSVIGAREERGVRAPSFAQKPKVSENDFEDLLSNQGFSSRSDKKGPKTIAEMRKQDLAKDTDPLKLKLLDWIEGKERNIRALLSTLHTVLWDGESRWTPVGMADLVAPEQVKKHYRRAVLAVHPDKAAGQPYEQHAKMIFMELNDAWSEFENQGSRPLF
Property Measured: pIC50
// pIC50: -log10(molar conc.)

Q: # input compound: C#CCOc1ccc(Nc2ncc(Cl)c(Nc3ccccc3NC(=O)C=C)n2)c(OC)c1 [Compound 6] ; wanted: its pIC50
Ans: 7.90
